Here, each record is paired with measured peptide exchange yield data.
- TESTED_ON: T1, HLA-A*02:01 (peptide-receptive MHC class I monomer from UV-ligand exchange) (human)
- T1 construct: Monomers were captured on streptavidin-coated plates
- PROTOCOL_TEXT: UV-exchange ELISA (anti-b2m); exchange yield grade: + >=10%, ++ >=20%, +++ >=50%, ++++ >=75%

Some binders with known peptide exchange yield results, for comparison:
# BINDER, peptide exchange yield
rows = [
    ("ALDPELLLL [peptide ALDPELLLL (SEQ ID NO 78)]", "20 to 50%"),
    ("NLFDLGGQYLRV [peptide NLFDLGGQYLRV (SEQ ID NO 181)]", "50 to 75%"),
    ("FLKNELDNV [peptide FLKNELDNV (SEQ ID NO 161)]", "50 to 75%"),
    ("GLSSAYGGL [peptide GLSSAYGGL (SEQ ID NO 30)]", "10 to 20%"),
    ("KSMDIVLTV [peptide KSMDIVLTV (SEQ ID NO 94)]", "50 to 75%"),
]

Prompt line: Which peptide exchange yield value belongs to ILLEKSVSV [peptide ILLEKSVSV (SEQ ID NO 34)] ?
Response line: 50 to 75%

Prompt line: Can you check QLYEEPDTKL [peptide QLYEEPDTKL (SEQ ID NO 82)] next?
Response line: 20 to 50%

Value source: patent US20160347808A1
